Experiment: self-splicing fitness, log relative to wild type (ln ratio); higher = more splicing; Tetrahymena group I intron in knt gene, E. coli kanamycin selection, DiMSum; sequences stand for … in CUCUCU…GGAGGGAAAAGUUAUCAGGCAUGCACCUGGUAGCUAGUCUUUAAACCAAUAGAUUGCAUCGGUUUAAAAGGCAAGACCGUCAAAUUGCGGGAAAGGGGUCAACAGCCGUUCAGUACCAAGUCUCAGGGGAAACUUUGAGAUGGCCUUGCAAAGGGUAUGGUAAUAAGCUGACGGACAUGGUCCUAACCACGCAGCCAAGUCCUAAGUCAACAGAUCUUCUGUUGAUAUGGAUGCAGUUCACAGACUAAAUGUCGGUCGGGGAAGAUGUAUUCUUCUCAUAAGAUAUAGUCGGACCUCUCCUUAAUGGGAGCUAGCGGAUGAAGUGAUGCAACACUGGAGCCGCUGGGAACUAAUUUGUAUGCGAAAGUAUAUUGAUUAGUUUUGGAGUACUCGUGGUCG;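 note: selection with 25 µg/mL kanamycin versus none on LB agar overnight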
Details: 37 °C
Property label: self-splicing fitness (ln)
I'd appreciate a reply containing only the number, no unit.

[ask] Give its self-splicing fitness (ln) value. Item: "CUUAAGCAAUAUUACGAUUA"
[reply] -2.72

[ask] Give its self-splicing fitness (ln) value. Item: "UUUAAGCAAUAUUACGGGCA"
[reply] -0.851

[ask] Give its self-splicing fitness (ln) value. Item: "AUAGAGCAAUAUUACGACUA"
[reply] 0.211

[ask] Give its self-splicing fitness (ln) value. Item: "AGAAAGCAAUAUUACGGUCA"
[reply] 0.187

[ask] Give its self-splicing fitness (ln) value. Item: "CCAAAGCAAUAUUACGUCCG"
[reply] -0.354

[ask] Give its self-splicing fitness (ln) value. Item: "AGUGAGCAAUAUUACGCGGG"
[reply] -2.1

[ask] Give its self-splicing fitness (ln) value. Item: "AAACAGCAAUAUUACGAGGC"
[reply] -3.12

[ask] Give its self-splicing fitness (ln) value. Item: "CGAAAGCAAUAUUACGGUUU"
[reply] -1.51

[ask] Give its self-splicing fitness (ln) value. Item: "AGUAAGCAAUAUUACGCGAU"
[reply] -2.29

[ask] Give its self-splicing fitness (ln) value. Item: "GUAUAGCAAUAUUACGCCUG"
[reply] -0.647

[ask] Give its self-splicing fitness (ln) value. Item: "AUUAAGCAAUAUUACGCUUC"
[reply] -2.03

[ask] Give its self-splicing fitness (ln) value. Item: "AUGAAGCAAUAUUACGUUUG"
[reply] -1.56

[ask] Give its self-splicing fitness (ln) value. Item: "CACCAGCAAUAUUACGUAUU"
[reply] -2.7

[ask] Give its self-splicing fitness (ln) value. Item: "GUCUAGCAAUAUUACGAGAA"
[reply] -0.829

[ask] Give its self-splicing fitness (ln) value. Item: "GAUAAGCAAUAUUACGCCCG"
[reply] -0.456

[ask] Give its self-splicing fitness (ln) value. Item: "UGUCAGCAAUAUUACGGAUU"
[reply] -0.507

[ask] Give its self-splicing fitness (ln) value. Item: "AUGUAGCAAUAUUACGACGC"
[reply] 0.119

[ask] Give its self-splicing fitness (ln) value. Item: "GCGUAGCAAUAUUACGAUGC"
[reply] -1.39

[ask] Give its self-splicing fitness (ln) value. Item: "AGUCAGCAAUAUUACGGAUC"
[reply] -0.438

[ask] Give its self-splicing fitness (ln) value. Item: "CUUUAGCAAUAUUACGCGGU"
[reply] -0.796

[ask] Give its self-splicing fitness (ln) value. Item: "CAUUAGCAAUAUUACGGAAA"
[reply] -2.52

[ask] Give its self-splicing fitness (ln) value. Item: "GCUAAGCAAUAUUACGGUUG"
[reply] -2.42

[ask] Give its self-splicing fitness (ln) value. Item: "GAAGAGCAAUAUUACGGCGC"
[reply] -0.427

[ask] Give its self-splicing fitness (ln) value. Item: "UAUGAGCAAUAUUACGGCAU"
[reply] -2.05

[ask] Give its self-splicing fitness (ln) value. Item: "AUGAAGCAAUAUUACGGAAA"
[reply] -0.666

[ask] Give its self-splicing fitness (ln) value. Item: "UAAUAGCAAUAUUACGUAGC"
[reply] -2.19

[ask] Give its self-splicing fitness (ln) value. Item: "GUAGAGCAAUAUUACGCGAA"
[reply] -0.709

[ask] Give its self-splicing fitness (ln) value. Item: "AUAUAGCAAUAUUACGUCGA"
[reply] -1.51

[ask] Give its self-splicing fitness (ln) value. Item: "GAGAAGCAAUAUUACGUCUG"
[reply] 0.277

[ask] Give its self-splicing fitness (ln) value. Item: "CAGAAGCAAUAUUACGUAUA"
[reply] -1.84

[ask] Give its self-splicing fitness (ln) value. Item: "UCUGAGCAAUAUUACGGCAG"
[reply] -0.992

[ask] Give its self-splicing fitness (ln) value. Item: "AAGAAGCAAUAUUACGGGAU"
[reply] -1.77

[ask] Give its self-splicing fitness (ln) value. Item: "AAGCAGCAAUAUUACGGAAG"
[reply] -1.35

[ask] Give its self-splicing fitness (ln) value. Item: "CUCGAGCAAUAUUACGGGCU"
[reply] -3.24

[ask] Give its self-splicing fitness (ln) value. Item: "GCGUAGCAAUAUUACGCCGU"
[reply] -3.17

[ask] Give its self-splicing fitness (ln) value. Item: "GCCAAGCAAUAUUACGUGAA"
[reply] 0.0387

[ask] Give its self-splicing fitness (ln) value. Item: "CCCAAGCAAUAUUACGCCUU"
[reply] -2.88

[ask] Give its self-splicing fitness (ln) value. Item: "AUACAGCAAUAUUACGCUGA"
[reply] -0.86

[ask] Give its self-splicing fitness (ln) value. Item: "UCUAAGCAAUAUUACGAGAC"
[reply] -2.52

[ask] Give its self-splicing fitness (ln) value. Item: "AGGAAGCAAUAUUACGUGAG"
[reply] -1.57

[ask] Give its self-splicing fitness (ln) value. Item: "CAGAAGCAAUAUUACGAAGU"
[reply] -2.48

[ask] Give its self-splicing fitness (ln) value. Item: "UCCAAGCAAUAUUACGGAAC"
[reply] -3.52

[ask] Give its self-splicing fitness (ln) value. Item: "UGCUAGCAAUAUUACGAGGU"
[reply] -3.27

[ask] Give its self-splicing fitness (ln) value. Item: "UGGCAGCAAUAUUACGAAUU"
[reply] -2.47

[ask] Give its self-splicing fitness (ln) value. Item: "UCCCAGCAAUAUUACGGGCU"
[reply] -1.32

[ask] Give its self-splicing fitness (ln) value. Item: "UAGAAGCAAUAUUACGUUAC"
[reply] -2.79

[ask] Give its self-splicing fitness (ln) value. Item: "AUAUAGCAAUAUUACGGGGG"
[reply] -0.973

[ask] Give its self-splicing fitness (ln) value. Item: "ACAAAGCAAUAUUACGAUCG"
[reply] 0.193

[ask] Give its self-splicing fitness (ln) value. Item: "UGCCAGCAAUAUUACGGUCC"
[reply] 0.136

[ask] Give its self-splicing fitness (ln) value. Item: "GGAGAGCAAUAUUACGCUUG"
[reply] -2.01

[ask] Give its self-splicing fitness (ln) value. Item: "CCGCAGCAAUAUUACGCUAA"
[reply] -2.55

[ask] Give its self-splicing fitness (ln) value. Item: "CAAAAGCAAUAUUACGGAAG"
[reply] -0.438

[ask] Give its self-splicing fitness (ln) value. Item: "CGCUAGCAAUAUUACGGCAC"
[reply] 0.16

[ask] Give its self-splicing fitness (ln) value. Item: "AUCGAGCAAUAUUACGCUAC"
[reply] -1.06

[ask] Give its self-splicing fitness (ln) value. Item: "UUUGAGCAAUAUUACGCUAC"
[reply] -1.45

[ask] Give its self-splicing fitness (ln) value. Item: "AUCGAGCAAUAUUACGAACG"
[reply] -1.65

[ask] Give its self-splicing fitness (ln) value. Item: "GAUUAGCAAUAUUACGUUAU"
[reply] -2.51

[ask] Give its self-splicing fitness (ln) value. Item: "CUUCAGCAAUAUUACGUUCU"
[reply] -2.26

[ask] Give its self-splicing fitness (ln) value. Item: "UGUCAGCAAUAUUACGUUUG"
[reply] 0.085

[ask] Give its self-splicing fitness (ln) value. Item: "GCGGAGCAAUAUUACGUUCG"
[reply] -0.666

[ask] Give its self-splicing fitness (ln) value. Item: "AAAAAGCAAUAUUACGUUAC"
[reply] -1.91

[ask] Give its self-splicing fitness (ln) value. Item: "CUAGAGCAAUAUUACGCAUA"
[reply] -2.93

[ask] Give its self-splicing fitness (ln) value. Item: "UUUUAGCAAUAUUACGUCGU"
[reply] -2.81

[ask] Give its self-splicing fitness (ln) value. Item: "UGUCAGCAAUAUUACGGGUC"
[reply] -2.66

[ask] Give its self-splicing fitness (ln) value. Item: "AAGAAGCAAUAUUACGGUCG"
[reply] -0.121

[ask] Give its self-splicing fitness (ln) value. Item: "AUAGAGCAAUAUUACGAUGC"
[reply] -1.36

[ask] Give its self-splicing fitness (ln) value. Item: "UUCUAGCAAUAUUACGAGCA"
[reply] -0.124
